Would you kindly list protein stability index for each of these variants?
B1: ZNF8 (parent)
chain: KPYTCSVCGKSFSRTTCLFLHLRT

variants of: B1; test: protein stability index of a GFP-peptide fusion (GPS, HEK-293T) (PSI 1-6); higher = more stable; details: c terminus: a fixed tail appended;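 also: lentivirally expressed fusions sorted by FACS into six bins by GFP to DsRed ratio, PSI derived from sequencing read proportions per bin multiplied by bin number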
Numbers only.

Answered cases to consult:
K10D : 2.03
L20P : 2.27
K10I : 1.65

# batch size: 2; output protein stability index per entry
1. L20R
2. G9Q

result:
1: 2.42; 2: 1.89
